# Tested on: NCI-H1793
# method summary: relative viability (nuclei count vs DMSO), 5 days (fraction); higher = more cells survive
# condition set: first compound 2.53 µM
endpoint label: relative viability
The answer should be written as a number, with no unit following it.

# molecule, numeric readout
measured = [
    ("Nc1cccc2c1CN(C1CCC(=O)NC1=O)C2=O (centres undefined) [Lenalidomide] + Cc1nc(NC(=O)N2CCC[C@H]2C(N)=O)sc1-c1ccnc(C(C)(C)C(F)(F)F)c1 [Alpelisib] (partner 2 µM)", 0.673),
    ("Nc1cccc2c1CN(C1CCC(=O)NC1=O)C2=O (centres undefined) [Lenalidomide] + Nc1nc2[nH]cc(CCc3ccc(C(=O)N[C@@H](CCC(=O)O)C(=O)O)cc3)c2c(=O)[nH]1 [Pemetrexed] (partner 0.2 µM)", 1.15),
    ("Nc1cccc2c1CN(C1CCC(=O)NC1=O)C2=O (centres undefined) [Lenalidomide] + NC(=O)Nc1cc(-c2cccc(F)c2)sc1C(=O)N[C@H]1CCCNC1 [AZD7762] (partner 0.2 µM)", 0.821),
]

Next molecule, relative viability to be filled in.
*Q* What does the record list as relative viability for Nc1cccc2c1CN(C1CCC(=O)NC1=O)C2=O (centres undefined) [Lenalidomide] + CCNC(=O)c1noc(-c2cc(C(C)C)c(O)cc2O)c1-c1ccc(CN2CCOCC2)cc1 [Luminespib] (partner 0.01 µM) ?
*A* 0.167

* * *

# Test system: NCI-H1944
# method summary: relative viability (nuclei count vs DMSO), 5 days (fraction); higher = more cells survive
# condition set: first compound 0.2 µM
endpoint label: relative viability
Give a plain numeric answer without units written out.

# molecule, target under test, numeric readout
data = [
    ("Cc1csc(=NC2CCCCC2)n1/N=C/c1ccc(O)c(O)c1O [MIM1] + O=C(c1cc(Cc2n[nH]c(=O)c3ccccc23)ccc1F)N1CCN(C(=O)C2CC2)CC1 [Olaparib] (partner 8 µM)", "NCI-H1944", 0.405),
    ("Cc1csc(=NC2CCCCC2)n1/N=C/c1ccc(O)c(O)c1O [MIM1] + Cc1nc(Nc2ncc(C(=O)Nc3c(C)cccc3Cl)s2)cc(N2CCN(CCO)CC2)n1 [Dasatinib] (partner 0.075 µM)", "NCI-H1944", 0.214),
    ("CCNC(=O)c1noc(-c2cc(C(C)C)c(O)cc2O)c1-c1ccc(CN2CCOCC2)cc1 [Luminespib] + CC(=O)Nc1cccc(-n2c(=O)n(C3CC3)c(=O)c3c(Nc4ccc(I)cc4F)n(C)c(=O)c(C)c32)c1 [Trametinib] (partner 0.02 µM)", "NCI-H1944", 0.354),
    ("CCNC(=O)c1noc(-c2cc(C(C)C)c(O)cc2O)c1-c1ccc(CN2CCOCC2)cc1 [Luminespib] + O=C(c1cc(Cc2n[nH]c(=O)c3ccccc23)ccc1F)N1CCN(C(=O)C2CC2)CC1 [Olaparib] (partner 8 µM)", "NCI-H1944", 0.33),
    ("Cc1csc(=NC2CCCCC2)n1/N=C/c1ccc(O)c(O)c1O [MIM1] + CS(=O)(=O)CCNCc1ccc(-c2ccc3ncnc(Nc4ccc(OCc5cccc(F)c5)c(Cl)c4)c3c2)o1 [Lapatinib] (partner 2 µM)", "NCI-H1944", 0.889),
    ("Cc1csc(=NC2CCCCC2)n1/N=C/c1ccc(O)c(O)c1O [MIM1] + Nc1ncn([C@H]2C[C@H](O)[C@@H](CO)O2)c(=O)n1 [Decitabine] (partner 2 µM)", "NCI-H1944", 0.399),
    ("Cc1csc(=NC2CCCCC2)n1/N=C/c1ccc(O)c(O)c1O [MIM1] + CS(=O)(=O)N1CCN(Cc2cc3nc(-c4cccc5[nH]ncc45)nc(N4CCOCC4)c3s2)CC1 [Pictilisib] (partner 1 µM)", "NCI-H1944", 0.394),
    ("CN1CCN(CCOc2cc(OC3CCOCC3)c3c(Nc4c(Cl)ccc5c4OCO5)ncnc3c2)CC1 [Saracatinib] + CC(=O)Nc1cccc(-n2c(=O)n(C3CC3)c(=O)c3c(Nc4ccc(I)cc4F)n(C)c(=O)c(C)c32)c1 [Trametinib] (partner 0.02 µM)", "NCI-H1944", 0.391),
]

*Q* Reported relative viability for Cc1csc(=NC2CCCCC2)n1/N=C/c1ccc(O)c(O)c1O [MIM1] + C[C@@H](Oc1cc(-c2cnn(C3CCNCC3)c2)cnc1N)c1c(Cl)ccc(F)c1Cl [Crizotinib] (partner 1 µM) : what is it?
*A* 1.11

*Q* Recorded relative viability for CCNC(=O)c1noc(-c2cc(C(C)C)c(O)cc2O)c1-c1ccc(CN2CCOCC2)cc1 [Luminespib] + C[C@@H](Oc1cc(-c2cnn(C3CCNCC3)c2)cnc1N)c1c(Cl)ccc(F)c1Cl [Crizotinib] (partner 1 µM) , please?
*A* 0.97

*Q* I would be grateful if you could share the reported relative viability for CCNC(=O)c1noc(-c2cc(C(C)C)c(O)cc2O)c1-c1ccc(CN2CCOCC2)cc1 [Luminespib] + CC1(C)CCC(c2ccc(Cl)cc2)=C(CN2CCN(c3ccc(C(=O)NS(=O)(=O)c4ccc(N[C@H](CCN5CCOCC5)CSc5ccccc5)c(S(=O)(=O)C(F)(F)F)c4)cc3)CC2)C1 [Navitoclax] (partner 0.5 µM) .
*A* 0.973
